# TEST_METHOD_NOTES: Aqueous solubility of the compound
# Format: physicochemical
RECORDED_ENDPOINT: solubility

1) Cl.c1ccc2c(c1)[nH]c1c(CNCCCCNCc3nccc4c3[nH]c3ccccc34)nccc12
> 10000 µg/mL

----------
# TEST_METHOD_NOTES: Antiproliferative activity against human EAhy926 cells measured after 48 hrs by MTT assay
# Assay type: functional, cell-based
# CONDITION_SET: EA.hy 926, 48 h
pIC50: −log10 of the molar value.
RECORDED_ENDPOINT: pIC50

1. Cn1c2ccccc2c2ccnc(CNCCCCCCNCc3nccc4c5ccccc5n(C)c34)c21
4.94
2. c1ccc(CCCn2c3ccccc3c3ccnc(CNCCCCCNCc4nccc5c6ccccc6n(CCCc6ccccc6)c45)c32)cc1
5.56
3. CCCCn1c2ccccc2c2ccnc(CNCCCCCNCc3nccc4c5ccccc5n(CCCC)c34)c21
5.67
4. c1ccc(CCCn2c3ccccc3c3ccnc(CNCCCCNCc4nccc5c6ccccc6n(CCCc6ccccc6)c45)c32)cc1
5.32
5. CC(C)n1c2ccccc2c2ccnc(CNCCCCCCNCc3nccc4c5ccccc5n(C(C)C)c34)c21
5.07
6. CCCCCCn1c2ccccc2c2ccnc(CNCCCCCNCc3nccc4c5ccccc5n(CCCCCC)c34)c21
5.29
7. Clc1cccc(Cn2c3ccccc3c3ccnc(CNCCCCCNCc4nccc5c6ccccc6n(Cc6cccc(Cl)c6)c45)c32)c1
5.33
8. CC(C)Cn1c2ccccc2c2ccnc(CNCCCCNCc3nccc4c5ccccc5n(CC(C)C)c34)c21
5.09
9. CCCCCCn1c2ccccc2c2ccnc(CNCCCCCCNCc3nccc4c5ccccc5n(CCCCCC)c34)c21
5.09
10. CC(C)Cn1c2ccccc2c2ccnc(CNCCCCCCNCc3nccc4c5ccccc5n(CC(C)C)c34)c21
5.26
11. CCCCCCn1c2ccccc2c2ccnc(CNCCCNCc3nccc4c5ccccc5n(CCCCCC)c34)c21
5.03
12. c1ccc(Cn2c3ccccc3c3ccnc(CNCCCCCCNCc4nccc5c6ccccc6n(Cc6ccccc6)c45)c32)cc1
5.42
13. c1ccc(Cn2c3ccccc3c3ccnc(CNCCCNCc4nccc5c6ccccc6n(Cc6ccccc6)c45)c32)cc1
5.05
14. CCCCCCCCn1c2ccccc2c2ccnc(CNCCCCNCc3nccc4c5ccccc5n(CCCCCCCC)c34)c21
5.03
15. CCCCCCn1c2ccccc2c2ccnc(CNCCCCNCc3nccc4c5ccccc5n(CCCCCC)c34)c21
5.05
16. CCn1c2ccccc2c2ccnc(CNCCCCNCc3nccc4c5ccccc5n(CC)c34)c21
5.27
17. c1ccc(CCCn2c3ccccc3c3ccnc(CNCCCNCc4nccc5c6ccccc6n(CCCc6ccccc6)c45)c32)cc1
5.03
